Biological target: FGF receptor 3 (Homo sapiens, UniProt P22607)
Sequence (P22607 23-806): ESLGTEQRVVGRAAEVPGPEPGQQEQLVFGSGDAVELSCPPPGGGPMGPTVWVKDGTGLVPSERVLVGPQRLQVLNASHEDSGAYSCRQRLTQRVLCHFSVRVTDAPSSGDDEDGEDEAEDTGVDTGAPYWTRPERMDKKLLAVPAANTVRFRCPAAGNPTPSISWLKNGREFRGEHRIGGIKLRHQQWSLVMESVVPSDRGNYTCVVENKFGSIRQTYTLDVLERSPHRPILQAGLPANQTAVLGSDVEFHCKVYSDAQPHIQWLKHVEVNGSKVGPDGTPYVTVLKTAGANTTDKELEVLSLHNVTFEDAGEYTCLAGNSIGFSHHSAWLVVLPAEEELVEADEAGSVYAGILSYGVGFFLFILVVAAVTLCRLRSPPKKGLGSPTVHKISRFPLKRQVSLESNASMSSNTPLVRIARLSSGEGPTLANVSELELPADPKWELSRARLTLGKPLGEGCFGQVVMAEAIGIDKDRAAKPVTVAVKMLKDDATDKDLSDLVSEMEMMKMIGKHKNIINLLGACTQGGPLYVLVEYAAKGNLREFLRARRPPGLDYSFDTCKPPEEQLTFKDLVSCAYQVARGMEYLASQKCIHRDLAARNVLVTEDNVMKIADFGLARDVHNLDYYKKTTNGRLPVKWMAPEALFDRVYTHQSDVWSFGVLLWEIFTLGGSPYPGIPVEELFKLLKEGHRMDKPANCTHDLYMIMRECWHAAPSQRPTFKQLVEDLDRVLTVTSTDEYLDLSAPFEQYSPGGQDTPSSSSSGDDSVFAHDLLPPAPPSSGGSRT
endpoint: IC50 (µM)

INSERT INTO assay_data (compound, value_measured) VALUES
  ('O=C(O)c1oc(C(=O)c2c[nH]c3c(CCCCCO)cccc23)c(O)c1-c1c[nH]c2ccccc12 [Compound D-410639]', 26.5);

---

Experiment: in vitro
Type: cell-based
Conditions: Chinese hamster, LC50, cytotoxicity
Listing of entries alongside the reported CC50 at 24 h.
endpoint: CC50 at 24 h (µM)

INSERT INTO assay_data (molecule, unit_tag, value_measured) VALUES
  ('Cn1cc(C2=C(O)C(=O)C(c3ccccc3)=C(O)C2=O)c2ccccc21 [compound 2, phenylindolyldihydroxyquinone, reference compound]', 'µM', 66.5),
  ('C=CC(C)(C)c1[nH]c2ccccc2c1C1=C(O)C(=O)C(c2c[nH]c3c(CC=C(C)C)cccc23)=C(O)C1=O', 'µM', 2.3);

---

System: CHO cells
Assay: in vitro
Type: cell-based
Details: Chinese hamster, 24 h
endpoint: CC50

INSERT INTO results (mol, test_target, endpoint, value_measured) VALUES
  ('O=C(O)c1oc(C(=O)c2c[nH]c3c(CCCCCO)cccc23)c(O)c1-c1c[nH]c2ccccc12', 'CHO cells', 'CC50', '296 µM');

---

Target: human insulin receptor (Homo sapiens)
Construct: expressed in transfected cells; host or cells: CHO cells (gift of Dr. Richard Roth, Stanford University)
Assay: Insulin receptor activation assay (CHO cells overexpressing human insulin receptor, Ab-3 capture, tyrosine kinase activity)
Type: cell-based
Settings: Study 2; test concentration 100 μM
Decision: % activation, tyrosine kinase activity compared to 10 nM insulin stimulation (Study 2) >= 50% yields label 1, all other cases yield label 0.

INSERT INTO assay_data (compound, answer_label) VALUES
  ('O=C(O)c1oc(C(=O)c2c[nH]c3c(CCCC(CO)CO)cccc23)c(O)c1-c1c[nH]c2ccccc12 [Compound D-410642]', 'label 0'),
  ('O=C(O)c1oc(C(=O)c2c[nH]c3c(CCCCCO)cccc23)c(O)c1-c1c[nH]c2ccccc12 [Compound D-410639]', 'label 1'),
  ('O=C(O)CCc1cccc2c(C(=O)c3oc(C(=O)O)c(-c4c[nH]c5ccccc45)c3O)c[nH]c12 [Compound D-410644]', 'label 0');

---

Target: human insulin receptor (Homo sapiens, UniProt P06213)
Construct: expressed in transfected cells; host or cells: CHO cells (gift of Dr. Richard Roth, Stanford University)
Sequence (P06213 763-1382 limits assumed): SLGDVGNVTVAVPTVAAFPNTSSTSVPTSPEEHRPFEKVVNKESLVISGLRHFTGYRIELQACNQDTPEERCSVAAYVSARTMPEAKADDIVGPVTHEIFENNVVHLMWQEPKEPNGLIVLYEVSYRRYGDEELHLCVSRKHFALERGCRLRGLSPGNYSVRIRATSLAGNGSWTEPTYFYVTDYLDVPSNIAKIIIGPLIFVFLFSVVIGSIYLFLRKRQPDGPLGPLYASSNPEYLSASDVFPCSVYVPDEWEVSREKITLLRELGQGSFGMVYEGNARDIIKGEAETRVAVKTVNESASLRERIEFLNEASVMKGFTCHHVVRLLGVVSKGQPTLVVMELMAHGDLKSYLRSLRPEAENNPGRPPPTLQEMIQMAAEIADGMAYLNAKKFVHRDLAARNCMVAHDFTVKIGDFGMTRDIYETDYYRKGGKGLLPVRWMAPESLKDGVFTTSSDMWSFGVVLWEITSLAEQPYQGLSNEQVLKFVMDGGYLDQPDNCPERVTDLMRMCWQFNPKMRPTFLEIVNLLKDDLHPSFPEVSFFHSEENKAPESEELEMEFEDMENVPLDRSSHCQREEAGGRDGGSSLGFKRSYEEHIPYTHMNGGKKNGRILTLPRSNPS
Sequence (P06213 28-758 partner limits assumed): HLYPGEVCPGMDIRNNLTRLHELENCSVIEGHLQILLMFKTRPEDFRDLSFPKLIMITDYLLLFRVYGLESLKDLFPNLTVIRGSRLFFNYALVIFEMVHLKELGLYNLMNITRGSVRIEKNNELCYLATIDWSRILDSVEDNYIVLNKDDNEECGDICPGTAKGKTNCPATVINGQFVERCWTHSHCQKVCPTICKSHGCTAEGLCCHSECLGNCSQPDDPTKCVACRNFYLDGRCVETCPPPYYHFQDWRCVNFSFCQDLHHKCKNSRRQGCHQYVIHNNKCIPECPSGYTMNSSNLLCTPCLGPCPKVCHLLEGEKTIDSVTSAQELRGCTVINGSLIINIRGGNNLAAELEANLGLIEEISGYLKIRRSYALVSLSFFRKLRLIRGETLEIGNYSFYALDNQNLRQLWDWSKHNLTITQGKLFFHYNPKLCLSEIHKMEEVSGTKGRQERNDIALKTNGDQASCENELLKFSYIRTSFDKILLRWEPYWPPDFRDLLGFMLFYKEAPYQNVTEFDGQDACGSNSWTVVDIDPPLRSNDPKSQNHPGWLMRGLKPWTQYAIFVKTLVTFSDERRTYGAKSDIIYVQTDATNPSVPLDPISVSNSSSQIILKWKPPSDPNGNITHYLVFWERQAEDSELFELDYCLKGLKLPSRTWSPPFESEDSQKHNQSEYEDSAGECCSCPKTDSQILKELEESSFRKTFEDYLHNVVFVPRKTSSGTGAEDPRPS
Experiment: Insulin receptor activation assay (CHO cells overexpressing human insulin receptor, Ab-3 capture, tyrosine kinase activity)
Assay type: cell-based
Details: Study 2; hydroxyfuroic acid compounds 100 μM; insulin 10 nM
endpoint: Study 2, cpm, phosphoryl incorporation by tyrosine kinase activities (cpm)

INSERT INTO results (compound, value_measured) VALUES
  ('O=C(O)CCCCc1cccc2c(C(=O)c3oc(C(=O)O)c(-c4c[nH]c5ccccc45)c3O)c[nH]c12 [Compound D-410643]', 799),
  ('CCCCCc1cccc2c(C(=O)c3oc(C(=O)O)c(-c4c[nH]c5ccccc45)c3O)c[nH]c12 [Compound D-410641]', 792.7),
  ('O=C(O)c1oc(C(=O)c2c[nH]c3c(CCCC(CO)CO)cccc23)c(O)c1-c1c[nH]c2ccccc12 [Compound D-410642]', 659.3),
  ('O=C(O)c1oc(C(=O)c2c[nH]c3c(CCCCCO)cccc23)c(O)c1-c1c[nH]c2ccccc12 [Compound D-410639]', 1181),
  ('O=C(O)CCc1cccc2c(C(=O)c3oc(C(=O)O)c(-c4c[nH]c5ccccc45)c3O)c[nH]c12 [Compound D-410644]', 357.3);
